Cited source for all entries: patent US9011863B2

Test system: human breast cancer cell lines
Assay: three-dimensional (3D) growth in Matrigel
Assay type: cell-based
Conditions: 3D Matrigel, 2.5% FBS, read-out: IC50 in cells tested in 3D
pIC50: −log10 of the molar value.
endpoint_label: pIC50

Please look at this compound and report its pIC50: COc1ccc(Cl)c(Nc2nc3ccccc3nc2NS(=O)(=O)c2cccc(NC(=O)C(C)(C)N)c2)c1 ≥ 5.22
